- Test system: IL-1β secretion from peripheral blood mononuclear cells
- protocol: Inhibition of IL-1β secretion from mixed population of peripheral blood mononuclear cells (PBMC)
- Assay type: cell-based
- condition: human PBMC, mature IL-1β in supernatant
property_label: IC50

Consider O=C(O)CC(NC(=O)[C@@H]1CCCCN1C(=O)c1ccc(-c2cccc(C(F)(F)F)c2)o1)C(=O)CF (stereo partly shown) [Compound 10] . Its measured IC50 is < 500 nM

* * *

- Test system: TNF-alpha
- protocol: Inhibition of TNF release from whole blood (LPS induced)
- Assay type: cell-based
- condition: Homo sapiens, LPS 5 ng/ml, overnight, ELISA, stated as bound
property_label: IC50

Consider O=C(O)CC(NC(=O)[C@@H]1CCCCN1C(=O)c1ccc(-c2cccc(C(F)(F)F)c2)o1)C(=O)CF (stereo partly shown) [Compound 10] . Its measured IC50 is < 6 µM
